system: Plasmodium falciparum; experiment: GSK_TCMDC: Inhibition of Plasmodium falciparum Dd2 in whole red blood cells, using parasite LDH activity as an index of growth. Test compounds present at 2uM; type: functional
// boundary case: Inhibition equal to 50% maps to 0; strictly smaller maps to 1

Compound: COc1ccc(-c2cccc(NC(=O)c3cccc(Cl)c3)c2)cc1CN(C)CCN(C)C.O=C(O)C(F)(F)F
Assigned Class: 0

Compound: Oc1cccc(-c2nc(-c3cccc(I)c3)c(-c3ccc(-c4nc(-c5cccc(O)c5)[nH]c4-c4cccc(I)c4)cc3)[nH]2)c1
Assigned Class: 0

Compound: Cc1ccc(NC(=O)c2cccc(CN3CCCN(Cc4cccc(O)c4)CC3)c2)cc1C.O=C(O)C(F)(F)F
Assigned Class: 1

Compound: COC(=O)c1cccc(CNCc2ccc(-c3cccc(-c4nc5cc(C(F)(F)F)ccc5[nH]4)c3)cc2)c1.O=C(O)C(F)(F)F
Assigned Class: 0

Compound: Cn1c(=O)c2cc(C(=O)NCCCN3CCCCCC3)sc2c2ccccc21
Assigned Class: 0

Compound: Cc1cc(CN2CC[C@H](NC(=O)c3ccc(Cl)c(Cl)c3)C2)ccc1OCCCN(C)C.O=C(O)C(F)(F)F
Assigned Class: 1

Compound: CC(C)C[C@@H](/C=N/N1CCNC1=O)NC(=O)[C@H](CC(C)C)NC(=O)c1ccc(OCCN2CCOCC2)cc1
Assigned Class: 0

Compound: CC(=O)N[C@H](C(=O)Nc1ccc(-c2ccc(-c3nc4cc(C(F)(F)F)ccc4[nH]3)cc2)cc1)C(C)C
Assigned Class: 0

Compound: O=C(Nc1cccc(-c2nn3ccccc3c2-c2ccnc(Nc3cccc(F)c3)n2)c1)c1c(F)ccc(F)c1Cl
Assigned Class: 1

Compound: COc1ccc2[nH]c(C)cc(=NN=Cc3ccccc3Cl)c2c1
Assigned Class: 0

Compound: COc1ccc(CNC2CCN(C)CC2)cc1-c1ccc(S(=O)(=O)NCc2ccccc2)c(F)c1.O=C(O)C(F)(F)F
Assigned Class: 0

Compound: CCCCn1c(-c2ccco2)nc2c(c(=O)c3ccccc3n2C)c1=O
Assigned Class: 0

Compound: COc1ccc(CN2C(=S)N(Cc3ccccc3)C(=O)C2CC(=O)Nc2ccccc2)cc1OC (stereo not drawn)
Assigned Class: 0

Compound: Br.CCOC(=O)c1cc(Cl)ccc1OCCCON1C(=N)N=C(N)NC1(C)C
Assigned Class: 0

Compound: O=C(O)C(F)(F)F.Oc1ccc(CCCNc2nc(NCc3ccccc3-c3ccccc3)nc(N3CCNCC3)n2)cc1
Assigned Class: 1

Compound: Cc1ccc(Oc2c(-c3ccccc3CN3CCCC3CN(C)C)cnn(C)c2=O)cn1.O=C(O)C(F)(F)F (stereo not drawn)
Assigned Class: 1

Compound: Cc1cccc2nc(-c3cccc(-c4cccc(NC(=O)c5cncn5C)c4)c3)[nH]c12
Assigned Class: 0

Compound: Cc1cc(NC(=O)c2ccc(S(=O)(=O)N(Cc3ccccc3)C(C)C)cc2)no1
Assigned Class: 0

Compound: Cc1ccc(CCC(C)NCC(O)c2cccc(C(F)(F)F)c2)cc1 (stereo not drawn)
Assigned Class: 0

Compound: O=C(Nc1ccc(CN2CCCCC2)cc1)c1ccc(COc2ccc([N+](=O)[O-])cc2)o1
Assigned Class: 1

Compound: CCCCOc1ccc(C(O)C(CN2CCCCC2)c2ccccc2)cc1 (stereo not drawn)
Assigned Class: 0

Compound: Cc1nc(N)nc(N)c1-c1cc(Cl)c(N)c(Cl)c1
Assigned Class: 1

Compound: CC(C)(C)NCC(O)COc1ccc(Cl)cc1C1=NNC(=O)CC1.Cl (stereo not drawn)
Assigned Class: 1

Compound: Cc1ncsc1CCN1C(=O)CC2(C1=O)C(=O)N(Cc1ccccc1)c1ccc(Cl)cc12 (stereo not drawn)
Assigned Class: 1

Compound: S=C(NCCCCCN1CCC(c2c[nH]c3ccccc23)CC1)Nc1cccc(I)c1
Assigned Class: 1

Compound: COc1cc(OC)c(NC(=O)Nc2ccnc3ccccc23)cc1Cl
Assigned Class: 1

Compound: O=C(Nc1cncc(NC(=O)c2ccc(Cl)c(Cl)c2)c1)c1ccc(Cl)c(Cl)c1
Assigned Class: 0

Compound: COc1cc(Cc2cnc(N)nc2N)ccc1OCC(=O)Nc1ccc(C)cc1
Assigned Class: 1

Compound: CN(C)CCCOC(=O)c1cc2cc(-c3ccccc3)ccc2n1S(=O)(=O)Cc1ccccc1.Cl
Assigned Class: 0

Compound: Fc1ccc(C=NN=c2cc[nH]c3ccc(C(F)(F)F)cc23)cc1
Assigned Class: 1

Compound: O=C(/C=C/c1ccc(Cl)cc1)NCCCCCN1CCCC(C(=O)Nc2ccc(F)c(Cl)c2)C1 (stereo not drawn)
Assigned Class: 1

Compound: CN(C)CCNC(=O)c1csc(Nc2ccc(Cl)c(Cl)c2)n1
Assigned Class: 0

Compound: O=C(NC1CC1)c1ccc2cc(C(=O)N3Cc4ccccc4C(c4ccccc4)C3)ccc2c1 (stereo not drawn)
Assigned Class: 0

Compound: Cc1cnn(-c2cccc(C(=O)NC3CCC(CCN4CCc5ccc(C#N)cc5CC4)CC3)c2)c1.Cl (stereo not drawn)
Assigned Class: 1

Compound: Cc1ccc(NS(=O)(=O)c2cccs2)cc1-c1cccc(C(=O)Nc2ccc(F)cc2)c1
Assigned Class: 0

Compound: COc1ccc(CNC(=O)NC2CCN(c3ccnc(Nc4ccc(F)cc4)n3)C2)cc1 (stereo not drawn)
Assigned Class: 0

Compound: Cc1cccc2nc(-c3cccc(-c4ccc(NC(=O)Nc5cccc(C#N)c5)cc4)c3)[nH]c12
Assigned Class: 0
